Catalogue of CC50 at 24 h readings, one per entry.
- experimental-details: EZ-Cytox cell viability assay, L929
- setup-conditions: mouse, Cytotoxicity (CC50) L929, EZ-Cytox
observable: CC50 at 24 h (µM)

- CC(=O)N(c1cc(F)cc(F)c1)c1nc2cc(Cl)ccc2c(=O)[nH]1: 17.9
- CC(=O)N(c1cc(Cl)cc(Cl)c1)c1nc2cccc(O)c2c(=O)[nH]1: 42.7

###

- Test system: NIH 3T3, mouse embryonic fibroblast cells
- experimental-details: EZ-Cytox cell viability assay, NIH 3T3
- setup-conditions: read-out: Cytotoxicity (CC50) NIH 3T3; EZ-Cytox, 24 h
observable: CC50

• CC(=O)N(c1cc(Cl)cc(Cl)c1)c1nc2cc(Cl)ccc2c(=O)[nH]1 = 7.6 µM

###

- experimental-details: in vitro
- setup-conditions: Chinese hamster, Cytotoxicity (CC50) CHO-K1, EZ-Cytox, 24 h
observable: CC50 (µM)

- CC(=O)N(c1cc(F)cc(F)c1)c1nc2cc(Cl)ccc2c(=O)[nH]1: 14.6
- CC(=O)N(c1cc(Cl)cc(Cl)c1)c1nc2cccc(O)c2c(=O)[nH]1: 17.1

###

- System: SARS-CoV-2
- experimental-details: Anti-SARS-CoV-2 immunofluorescence assay in Vero cells
- Type: cell-based
- setup-conditions: CC50/IC50 for inhibiting SARS-CoV-2 infection, Vero cells
observable: SI (selectivity index)

* CCC(=O)N(c1cc(Cl)cc(Cl)c1)c1nc2cc(Cl)ccc2c(=O)[nH]1 [Compound 6a] | > 117
* Cc1ccc(S(=O)(=O)N(c2cc(Cl)cc(Cl)c2)c2nc3cc(Cl)ccc3c(=O)[nH]2)cc1 [Compound 6d] | > 44
* O=C(CO)N(c1cc(Cl)cc(Cl)c1)c1nc2cc(Cl)ccc2c(=O)[nH]1 [Compound 8] | > 10
* O=c1[nH]c(Nc2cc(F)cc(F)c2)nc2cc(Cl)ccc12 [Compound 1b] | 74
* O=c1[nH]c(Nc2cc(Cl)cc(Cl)c2)nc2cccc(O)c12 [Compound 5c] | > 168

###

- experimental-details: Cytotoxicity (CC50) in uninfected Vero cells
- setup-conditions: African green monkey, uninfected Vero cells
observable: CC50 at 24 h

- COC(=O)N(c1cc(Cl)cc(Cl)c1)c1nc2cc(Cl)ccc2c(=O)[nH]1 [Compound 6b]: > 25 µM

###

- experimental-details: in vitro
- setup-conditions: African green monkey
Overview of reported CC50 at 24 h across a group of molecules:
observable: CC50 at 24 h

• O=c1[nH]c(Nc2cc(Cl)cc(Cl)c2)nc2cccc(O)c12 = > 25 µM
• Cc1ccc(S(=O)(=O)N(c2cc(Cl)cc(Cl)c2)c2nc3cc(Cl)ccc3c(=O)[nH]2)cc1 = > 25 µM
• CC(=O)N(c1cc(Cl)cc(Cl)c1)c1nc2cccc(O)c2c(=O)[nH]1 = > 25 µM
• O=c1[nH]c(Nc2cc(Cl)cc(Cl)c2)nc2cc(Cl)ccc12 = > 25 µM
• CN(c1cc(Cl)cc(Cl)c1)c1nc2cc(Cl)ccc2c(=O)[nH]1 = > 25 µM
• CCC(=O)N(c1cc(Cl)cc(Cl)c1)c1nc2cc(Cl)ccc2c(=O)[nH]1 = > 25 µM
• CC(=O)N(c1cc(F)cc(F)c1)c1nc2cc(Cl)ccc2c(=O)[nH]1 = > 25 µM
• O=C(CO)N(c1cc(Cl)cc(Cl)c1)c1nc2cc(Cl)ccc2c(=O)[nH]1 = > 25 µM
• O=c1[nH]c(Nc2cc(F)cc(F)c2)nc2cc(Cl)ccc12 = 18 µM
• CC(=O)N(c1cc(Cl)cc(Cl)c1)c1nc2cc(Cl)ccc2c(=O)[nH]1 = 9.39 µM

###

Overview of recorded pIC50 for various compounds
- target-desc: hERG K+ channel (Homo sapiens, UniProt Q12809)
- Sequence (Q12809 whole entry): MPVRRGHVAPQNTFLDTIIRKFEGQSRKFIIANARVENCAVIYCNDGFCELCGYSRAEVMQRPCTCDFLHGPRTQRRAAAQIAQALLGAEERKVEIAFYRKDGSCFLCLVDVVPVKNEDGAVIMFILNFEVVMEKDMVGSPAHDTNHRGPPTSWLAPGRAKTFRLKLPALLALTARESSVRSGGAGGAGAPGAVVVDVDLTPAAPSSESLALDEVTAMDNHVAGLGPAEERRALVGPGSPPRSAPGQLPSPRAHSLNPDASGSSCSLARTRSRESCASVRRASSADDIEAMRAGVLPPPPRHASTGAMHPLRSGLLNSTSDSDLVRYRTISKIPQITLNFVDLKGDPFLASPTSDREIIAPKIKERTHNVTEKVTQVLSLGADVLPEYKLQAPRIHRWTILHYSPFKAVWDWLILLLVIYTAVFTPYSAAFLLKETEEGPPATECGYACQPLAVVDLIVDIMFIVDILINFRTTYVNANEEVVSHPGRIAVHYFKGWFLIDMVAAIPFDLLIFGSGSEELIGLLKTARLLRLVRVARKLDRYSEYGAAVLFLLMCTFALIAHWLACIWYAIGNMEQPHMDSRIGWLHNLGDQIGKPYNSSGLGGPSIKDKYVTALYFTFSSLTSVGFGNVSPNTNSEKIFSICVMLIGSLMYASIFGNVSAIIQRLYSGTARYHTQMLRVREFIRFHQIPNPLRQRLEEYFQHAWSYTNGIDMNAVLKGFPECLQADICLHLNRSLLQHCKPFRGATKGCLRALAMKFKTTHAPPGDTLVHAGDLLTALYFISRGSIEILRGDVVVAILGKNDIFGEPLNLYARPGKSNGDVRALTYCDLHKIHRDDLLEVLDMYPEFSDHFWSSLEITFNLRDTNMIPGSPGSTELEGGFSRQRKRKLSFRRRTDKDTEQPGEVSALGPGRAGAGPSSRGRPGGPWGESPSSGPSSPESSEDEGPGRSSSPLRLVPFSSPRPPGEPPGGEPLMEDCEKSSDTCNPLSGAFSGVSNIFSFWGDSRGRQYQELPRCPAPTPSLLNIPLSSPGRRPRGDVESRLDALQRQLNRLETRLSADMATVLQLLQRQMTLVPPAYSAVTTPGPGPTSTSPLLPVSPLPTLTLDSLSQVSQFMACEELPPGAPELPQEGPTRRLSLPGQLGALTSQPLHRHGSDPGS
- experimental-details: cell-based
pIC50: −log10 of the molar value.
observable: pIC50

- CC(=O)N(c1cc(Cl)cc(Cl)c1)c1nc2cc(Cl)ccc2c(=O)[nH]1: 4.82
- CC(=O)N(c1cc(F)cc(F)c1)c1nc2cc(Cl)ccc2c(=O)[nH]1: 4.52

###

Reported values of CC50 at 24 h for individual entries
- experimental-details: EZ-Cytox cell viability assay, HFL-1
- setup-conditions: human, Cytotoxicity (CC50) HFL-1, EZ-Cytox
observable: CC50 at 24 h (µM)

* CC(=O)N(c1cc(F)cc(F)c1)c1nc2cc(Cl)ccc2c(=O)[nH]1 | 12.6
* CC(=O)N(c1cc(Cl)cc(Cl)c1)c1nc2cccc(O)c2c(=O)[nH]1 | 13.7

Values from paper PMC9318802
